target: PSMA-expressing C4-2 cells (Homo sapiens, UniProt Q04609); construct: PSMA-expressing C4-2 cells (ATCC, Cat. No. CRL-3314) were cultured in RPMI-1640; host or cells: C4-2 cells; assay: FACS binding assay (competition with 50 nM PSM-0183); settings: FACS binding, C4-2 cells, competition with 50 nM PSM-0183; category; read-out: pIC50 [C4-2] CAT (converted)
Sequence (Q04609 whole entry): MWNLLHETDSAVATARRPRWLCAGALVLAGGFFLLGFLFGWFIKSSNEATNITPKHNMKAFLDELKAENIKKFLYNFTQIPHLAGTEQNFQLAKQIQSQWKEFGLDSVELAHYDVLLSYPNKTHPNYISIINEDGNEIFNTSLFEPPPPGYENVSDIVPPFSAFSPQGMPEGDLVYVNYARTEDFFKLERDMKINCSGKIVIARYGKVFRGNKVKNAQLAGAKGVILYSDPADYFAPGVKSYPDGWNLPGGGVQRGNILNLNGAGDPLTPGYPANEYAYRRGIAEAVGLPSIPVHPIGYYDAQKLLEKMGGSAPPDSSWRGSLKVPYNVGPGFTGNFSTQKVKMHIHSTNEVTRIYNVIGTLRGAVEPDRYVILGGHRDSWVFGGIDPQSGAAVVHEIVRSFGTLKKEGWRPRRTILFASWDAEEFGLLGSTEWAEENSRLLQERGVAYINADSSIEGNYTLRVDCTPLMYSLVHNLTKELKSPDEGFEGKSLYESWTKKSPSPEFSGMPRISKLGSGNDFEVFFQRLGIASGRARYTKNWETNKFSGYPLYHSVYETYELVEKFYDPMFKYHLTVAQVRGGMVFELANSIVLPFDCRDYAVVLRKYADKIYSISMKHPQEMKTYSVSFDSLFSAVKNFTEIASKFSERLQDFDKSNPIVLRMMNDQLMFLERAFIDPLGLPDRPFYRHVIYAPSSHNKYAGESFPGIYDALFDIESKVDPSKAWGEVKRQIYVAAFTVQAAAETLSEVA
Numbered stars: 1 amine (or outer) side, 2 acyl side, 3 side chain; on linkers, the order of the positions; unused ones are H or OH. Bridge positions count the residues as written; N and C are the ends. Square brackets hold non-standard residues; d marks the D form. Peptide text beside a SMILES is read from it. * marks the point of attachment. X3 = O=C(O)CN1CCN(CC(=O)O)CCN(CC(=O)NCCCOCCOCCOCCCN*)CCN(CC(=O)O)CC1; Suc = O=C(CCC(=O)[*:2])[*:1]; Tle = CC(C)(C)[C@H](N)C(=O)O; Aib = CC(C)(N)C(=O)O
measured.endpoint: IC50

Inquiry: Look up IC50 for this compound: C[C@@H]1NC(=O)[C@H](CCCNC(=N)N)NC(=O)[C@H](CCCCN)NC(=O)[C@@H](NC(=O)[C@H](Cc2ccccc2)NC(=O)C(C)(C)NC(=O)[C@@H](NC(=O)CCC(=O)NCCCOCCOCCOCCCNC(=O)CN2CCN(CC(=O)O)CCN(CC(=O)O)CCN(CC(=O)O)CC2)[C@@H](C)O)CSSC[C@@H](C(=O)N[C@H](C(=O)N[C@H](C(=O)N[C@@H](CC(=O)O)C(N)=O)[C@@H](C)O)C(C)(C)C)NC(=O)[C@H](CC(N)=O)NC1=O [PSM-0193] ({X3-Suc}-T[Aib]FCKRANC[Tle]TD-NH2; disulfide 4-9)
Reply text: < 200 nM

* * *

biological target: Fc-fusion protein of human PSMA (hPSMA-Fc) (Homo sapiens); construct: purchased Acro Biosystems PSA-H5264; assay: Surface plasmon resonance assay (Biacore T200, single cycle kinetic); assay type: binding; details: pKD category for PSMA SPR activity assay, hPSMA-Fc, 25° C.; read-out: pKD CAT (converted)
Numbered stars: 1 amine (or outer) side, 2 acyl side, 3 side chain; on linkers, the order of the positions; unused ones are H or OH. Bridge positions count the residues as written; N and C are the ends. Square brackets hold non-standard residues; d marks the D form. Peptide text beside a SMILES is read from it. * marks the point of attachment. DOTA = O=C(O)CN1CCN(CC(=O)O)CCN(CC(=O)*)CCN(CC(=O)O)CC1; Phe(4-SO3H) = N[C@@H](Cc1ccc(S(=O)(=O)O)cc1)C(=O)O; Phe(4-CF3) = N[C@@H](Cc1ccc(C(F)(F)F)cc1)C(=O)O; Phe(4-Cl) = N[C@@H](Cc1ccc(Cl)cc1)C(=O)O; X1 = O=C(CC1CCN([*:1])CC1)[*:2]; Cit = NC(=O)NCCC[C@H](N)C(=O)O; Tle = CC(C)(C)[C@H](N)C(=O)O; Aib = CC(C)(N)C(=O)O; βAla = NCCC(=O)O
measured.endpoint: Kd

{"columns": ["compound", "Kd"],
 "data": [
  ["C[C@@H](O)[C@H](NC(=O)CN1CCN(CC(=O)O)CCN(CC(=O)O)CCN(CC(=O)O)CC1)C(=O)NC(C)(C)C(=O)N[C@@H](Cc1ccc(Cl)cc1)C(=O)N[C@H]1CSSC[C@@H](C(=O)N[C@H](C(N)=O)C(C)(C)C)NC(=O)[C@H](CC(N)=O)NC(=O)C(C)(C)NC(=O)[C@H](CCCNC(=N)N)NC(=O)[C@H](CCCCN)NC1=O [PSM-0534] ({DOTA}-T[Aib][Phe(4-Cl)]CKR[Aib]NC[Tle]-NH2; disulfide 4-9)", "< 12.6 nM"],
  ["C[C@@H](O)[C@H](NC(=O)[C@@H](NC(=O)[C@@H]1CSSC[C@H](NC(=O)[C@H](Cc2ccc(Cl)cc2)NC(=O)C(C)(C)NC(=O)[C@@H](NC(=O)CC2CCN(C(=O)CN3CCN(CC(=O)O)CCN(CC(=O)O)CCN(CC(=O)O)CC3)CC2)[C@@H](C)O)C(=O)N[C@@H](CCCCN)C(=O)N[C@@H](CCCNC(=N)N)C(=O)NC(C)(C)C(=O)N[C@@H](CC(N)=O)C(=O)N1)C(C)(C)C)C(N)=O [PSM-0445] ({DOTA}-[X1]T[Aib][Phe(4-Cl)]CKR[Aib]NC[Tle]T-NH2; disulfide 5-10)", "< 12.6 nM"]
]}

Inquiry: Item: CC(=O)N[C@H](C(=O)NC(C)(C)C(=O)N[C@@H](Cc1ccccc1)C(=O)N[C@H]1CSSC[C@@H](C(=O)N[C@H](C(=O)N[C@@H](Cc2c[nH]c3ccccc23)C(N)=O)C(C)(C)C)NC(=O)[C@H](CC(N)=O)NC(=O)C(C)(C)NC(=O)[C@H](CCCNC(=N)N)NC(=O)[C@H](CCCCN)NC1=O)[C@@H](C)O [PSM-0376] (Ac-T[Aib]FCKR[Aib]NC[Tle]W-NH2; disulfide 4-9) Test system: Fc-fusion protein of human PSMA (hPSMA-Fc) (Homo sapiens) Read-out: Kd Value: ?
Reply text: < 12.6 nM

Inquiry: Item: C[C@@H](O)[C@H](NC(=O)[C@@H](NC(=O)[C@@H]1CSSC[C@H](NC(=O)[C@H](Cc2ccc(Cl)cc2)NC(=O)C(C)(C)NC(=O)[C@@H](NC(=O)CC2CCN(C(=O)CN3CCN(CC(=O)O)CCN(CC(=O)O)CCN(CC(=O)O)CC3)CC2)[C@@H](C)O)C(=O)N[C@@H](CCCCN)C(=O)N[C@@H](CCCNC(N)=O)C(=O)NC(C)(C)C(=O)N[C@@H](CC(N)=O)C(=O)N1)C(C)(C)C)C(N)=O [PSM-0365] ({DOTA}-[X1]T[Aib][Phe(4-Cl)]CK[Cit][Aib]NC[Tle]T-NH2; disulfide 5-10) Test system: Fc-fusion protein of human PSMA (hPSMA-Fc) (Homo sapiens) Read-out: Kd Value: ?
Reply text: < 12.6 nM

Inquiry: Item: CC(=O)N[C@H](C(=O)NC(C)(C)C(=O)N[C@@H](Cc1ccccc1)C(=O)N[C@H]1CSSC[C@@H](C(=O)N[C@H](C(=O)N[C@H](C(N)=O)[C@@H](C)O)C(C)(C)C)NC(=O)[C@H](CC(N)=O)NC(=O)[C@H](CCCCNC(=O)CN2CCN(CC(=O)O)CCN(CC(=O)O)CCN(CC(=O)O)CC2)NC(=O)[C@H](CCC(N)=O)NC(=O)[C@H](CCCCN)NC1=O)[C@@H](C)O [PSM-0385] (Ac-T[Aib]FCKQK(DOTA)NC[Tle]T-NH2; disulfide 4-9) Test system: Fc-fusion protein of human PSMA (hPSMA-Fc) (Homo sapiens) Read-out: Kd Value: ?
Reply text: 126 to 501 nM

Inquiry: Item: "C=C1N[C@@H](CCCCN)C(=O)N[C@@H](CCCNC(=N)N)C(=O)NC(C)(C)C(=O)N[C@@H](CC(N)=O)C(=O)N[C@H](C(=O)N[C@H](C(=O)N[C@H](C(=O)NCCOCCOCC(=O)N[C@H](CCCCNC(=O)CN2CCN(CC(=O)O)CCN(CC(=O)O)CCN(CC(=O)O)CC2)C(N)=O)[C@@H](C)O)C(C)(C)C)CSSC[C@@H]1NC(=O)[C@H](Cc1ccccc1)NC(=O)C(C)(C)NC(=O)[C@@H](NC(C)=O)[C@@H](C)O" Test system: Fc-fusion protein of human PSMA (hPSMA-Fc) (Homo sapiens) Read-out: Kd Value: ?
Reply text: < 12.6 nM

Inquiry: Item: C[C@@H](O)[C@H](NC(=O)[C@@H](NC(=O)[C@@H]1CSSC[C@H](NC(=O)[C@H](Cc2ccc(S(=O)(=O)O)cc2)NC(=O)C(C)(C)NC(=O)[C@@H](NC(=O)CC2CCN(C(=O)CN3CCN(CC(=O)O)CCN(CC(=O)O)CCN(CC(=O)O)CC3)CC2)[C@@H](C)O)C(=O)N[C@@H](CCCCN)C(=O)N[C@@H](CCCNC(=N)N)C(=O)NC(C)(C)C(=O)N[C@@H](CC(N)=O)C(=O)N1)C(C)(C)C)C(N)=O [PSM-0386] ({DOTA}-[X1]T[Aib][Phe(4-SO3H)]CKR[Aib]NC[Tle]T-NH2; disulfide 5-10) Test system: Fc-fusion protein of human PSMA (hPSMA-Fc) (Homo sapiens) Read-out: Kd Value: ?
Reply text: > 501 nM

Inquiry: Item: CC(=O)N[C@H](C(=O)NC(C)(C)C(=O)N[C@@H](Cc1ccc(C(F)(F)F)cc1)C(=O)N[C@H]1CSSC[C@@H](C(=O)N[C@H](C(=O)N[C@H](C(N)=O)[C@@H](C)O)C(C)(C)C)NC(=O)[C@H](CC(N)=O)NC(=O)C(C)(C)NC(=O)[C@H](CCCNC(=N)N)NC(=O)[C@H](CCCCN)NC1=O)[C@@H](C)O [PSM-0550] (Ac-T[Aib][Phe(4-CF3)]CKR[Aib]NC[Tle]T-NH2; disulfide 4-9) Test system: Fc-fusion protein of human PSMA (hPSMA-Fc) (Homo sapiens) Read-out: Kd Value: ?
Reply text: < 12.6 nM

Inquiry: Item: C[C@@H](O)[C@H](NC(=O)CN1CCN(CC(=O)O)CCN(CC(=O)O)CCN(CC(=O)O)CC1)C(=O)NC(C)(C)C(=O)N[C@@H](Cc1ccccc1)C(=O)N[C@H]1CSSC[C@@H](C(=O)N[C@H](C(=O)NCCC(N)=O)C(C)(C)C)NC(=O)[C@H](CC(N)=O)NC(=O)C(C)(C)NC(=O)[C@H](CCCNC(=N)N)NC(=O)[C@H](CCCCN)NC1=O [PSM-0539] ({DOTA}-T[Aib]FCKR[Aib]NC[Tle][βAla]-NH2; disulfide 4-9) Test system: Fc-fusion protein of human PSMA (hPSMA-Fc) (Homo sapiens) Read-out: Kd Value: ?
Reply text: 12.6 to 126 nM
